# target.or.test.system: T1, human IL-23R endogenously expressed on DB cells (human, UniProt Q5VWK5 24-629)
# T1 sequence (looked up): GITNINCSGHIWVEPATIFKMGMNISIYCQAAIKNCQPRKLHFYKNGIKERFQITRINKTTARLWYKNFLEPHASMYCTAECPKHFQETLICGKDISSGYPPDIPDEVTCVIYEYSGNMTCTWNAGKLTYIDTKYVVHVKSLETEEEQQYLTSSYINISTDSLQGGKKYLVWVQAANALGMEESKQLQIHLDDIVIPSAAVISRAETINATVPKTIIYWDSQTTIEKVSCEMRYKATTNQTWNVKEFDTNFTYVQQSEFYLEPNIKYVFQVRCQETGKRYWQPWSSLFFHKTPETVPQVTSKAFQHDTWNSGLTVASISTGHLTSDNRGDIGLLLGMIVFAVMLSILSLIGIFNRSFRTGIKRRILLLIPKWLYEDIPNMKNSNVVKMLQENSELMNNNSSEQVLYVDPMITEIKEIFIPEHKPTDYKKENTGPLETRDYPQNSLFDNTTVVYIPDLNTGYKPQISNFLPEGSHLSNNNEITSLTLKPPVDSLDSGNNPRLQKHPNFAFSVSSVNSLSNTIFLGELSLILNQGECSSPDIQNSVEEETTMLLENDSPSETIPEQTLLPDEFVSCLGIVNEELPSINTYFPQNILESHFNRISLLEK
# test.summary: cell-based or functional assay
*1 amine or outer side, *2 acyl side, *3 side chain or, on linkers, in order; H or OH if unused. Bridges are numbered along the chain shown (N, C = ends). Primed or numbered codes have the meaning given here. Where no end group is shown, it is not given here. [ ]: non-standard residue; d: D form. K(G) = Lys(Gly): lysine with a glycine on the side-chain amine, (2S)-2-amino-6-[(2-aminoacetyl)amino]hexanoic acid, O=C(CN[*:3])NCCCC[C@H](N[*:1])C(=O)[*:2]; 4‑Aminomethyl‑phenylacetyl = 4-aminomethyl-phenylacetyl unit, its amine closes the lactam, O=C(Cc1ccc(CN[*:1])cc1)[*:2]; 1,3‑dibromopropan‑2‑one″ = linker forming 1,3-dithio-propan-2-one bridge -SCH2C(=O)CH2S- between two Cys; 2‑Amino‑6‑carboxyhexanoyl = 2-aminoheptanedioic acid residue; 2Nal = N[C@@H](Cc1ccc2ccccc2c1)C(=O)O; AEF = NCCOc1ccc(C[C@H](N)C(=O)O)cc1; 3Pal = N[C@@H](Cc1cccnc1)C(=O)O; αMeL = CC(C)C[C@](C)(N)C(=O)O; β3hK = NCCCC[C@H](N)CC(=O)O; dDab = NCC[C@@H](N)C(=O)O; Dab = NCC[C@H](N)C(=O)O; βAla = NCCC(=O)O
measured.endpoint: hIL-23 (pSTAT3) antagonist % inhibition (%)

- [dK]TVWQE[AEF][2Nal][αMeL]E[Dab][3Pal]-NH2 (lactam 1-10; lactam (positions not given here); not fully specified (bridges); printed as [{d}K](1c)(6c)^{†}TVWQE(6c)[Y(2-aminoethoxy)][2-Nal][2-Me-Leu]E(1c)[Dab][3-(3-Pyridyl)-Ala]-[NH2]) [Compound 1]: 102
- K[βAla]WQE[AEF][2Nal][αMeL]E[Dab][3Pal]-NHMe (lactam 1-9, N-5; SMILES CNC(=O)[C@H](Cc1cccnc1)NC(=O)[C@H](CCN)NC(=O)[C@@H]1CCC(=O)NCCCC[C@@H]2NC(=O)CC[C@H](NC(=O)[C@H](CCC(N)=O)NC(=O)[C@H](Cc3c[nH]c4ccccc34)NC(=O)CCNC2=O)C(=O)N[C@@H](Cc2ccc(OCCN)cc2)C(=O)N[C@@H](Cc2ccc3ccccc3c2)C(=O)N[C@@](C)(CC(C)C)C(=O)N1) [Compound 45]: 100
- KTWQE[AEF][2Nal][αMeL]E[Dab][3Pal]-NHMe (lactam 1-9, N-5; SMILES CNC(=O)[C@H](Cc1cccnc1)NC(=O)[C@H](CCN)NC(=O)[C@@H]1CCC(=O)NCCCC[C@@H]2NC(=O)CC[C@H](NC(=O)[C@H](CCC(N)=O)NC(=O)[C@H](Cc3c[nH]c4ccccc34)NC(=O)[C@H]([C@@H](C)O)NC2=O)C(=O)N[C@@H](Cc2ccc(OCCN)cc2)C(=O)N[C@@H](Cc2ccc3ccccc3c2)C(=O)N[C@@](C)(CC(C)C)C(=O)N1) [Compound 36]: 97
- [dDab]TVWQE[AEF][2Nal][αMeL][2‑Amino‑6‑carboxyhexanoyl][Dab][3Pal]-NH2 (lactam 1-10, N-6) [Compound 7]: 99
- Ac-KTCWQC[AEF][2Nal][αMeL]E[Dab][3Pal]-NH2 (lactam 1-10; linker 3-6 via 1,3‑dibromopropan‑2‑one″) [Ref 155]: 100
- KGWQE[AEF][2Nal][αMeL]E[Dab][3Pal]-NHMe (lactam 1-9, N-5; SMILES CNC(=O)[C@H](Cc1cccnc1)NC(=O)[C@H](CCN)NC(=O)[C@@H]1CCC(=O)NCCCC[C@@H]2NC(=O)CC[C@H](NC(=O)[C@H](CCC(N)=O)NC(=O)[C@H](Cc3c[nH]c4ccccc34)NC(=O)CNC2=O)C(=O)N[C@@H](Cc2ccc(OCCN)cc2)C(=O)N[C@@H](Cc2ccc3ccccc3c2)C(=O)N[C@@](C)(CC(C)C)C(=O)N1) [Compound 44]: 100
- [β3hK]GWQE[AEF][2Nal][αMeL]E[Dab][3Pal]-NHMe (lactam 1-9; lactam (positions not given here); not fully specified (bridges); also: beta-amine of residue 1 is in one of the two lactams) [Compound 99]: 100
- [4‑Aminomethyl‑phenylacetyl]SCWQC[AEF][2Nal][αMeL]E[Dab]-NH2 (lactam N-10; linker 3-6 via 1,3‑dibromopropan‑2‑one″) [Ref 82]: 97
- [K(G)]WQE[AEF][2Nal][αMeL]E[Dab][3Pal]-NHMe (lactam 1-8, N-4; SMILES CNC(=O)[C@H](Cc1cccnc1)NC(=O)[C@H](CCN)NC(=O)[C@@H]1CCC(=O)NCC(=O)NCCCC[C@@H]2NC(=O)CC[C@H](NC(=O)[C@H](CCC(N)=O)NC(=O)[C@H](Cc3c[nH]c4ccccc34)NC2=O)C(=O)N[C@@H](Cc2ccc(OCCN)cc2)C(=O)N[C@@H](Cc2ccc3ccccc3c2)C(=O)N[C@@](C)(CC(C)C)C(=O)N1) [Compound 46]: 102
- KTVWQE[AEF][2Nal][αMeL]E[Dab][3Pal]-NH2 (lactam 1-10, N-6; SMILES CC(C)C[C@]1(C)NC(=O)[C@H](Cc2ccc3ccccc3c2)NC(=O)[C@H](Cc2ccc(OCCN)cc2)NC(=O)[C@@H]2CCC(=O)N[C@@H](CCCCNC(=O)CC[C@@H](C(=O)N[C@@H](CCN)C(=O)N[C@@H](Cc3cccnc3)C(N)=O)NC1=O)C(=O)N[C@@H]([C@@H](C)O)C(=O)N[C@@H](C(C)C)C(=O)N[C@@H](Cc1c[nH]c3ccccc13)C(=O)N[C@@H](CCC(N)=O)C(=O)N2) [Compound 2]: 99

Origin of values: patent EP4471048A1
